Please respond with reported pIC50 for every item in the list.
Assay System: Procathepsin L (Homo sapiens, UniProt P07711)
Sequence (P07711 whole entry): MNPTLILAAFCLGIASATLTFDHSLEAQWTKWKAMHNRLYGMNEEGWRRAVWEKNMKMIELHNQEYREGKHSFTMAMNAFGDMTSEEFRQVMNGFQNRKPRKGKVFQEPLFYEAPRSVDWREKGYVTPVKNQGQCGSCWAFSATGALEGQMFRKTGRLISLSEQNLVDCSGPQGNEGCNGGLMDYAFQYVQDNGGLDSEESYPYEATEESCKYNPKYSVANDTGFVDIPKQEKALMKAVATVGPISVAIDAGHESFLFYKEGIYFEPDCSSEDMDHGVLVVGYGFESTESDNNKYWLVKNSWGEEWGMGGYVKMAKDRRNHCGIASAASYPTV
Assay Explanation: Inhibition of human recombinant cathepsin L by fluorescence assay
Would you please state pIC50, meaning minus log10 of the concentration in mol/L, as a bare number?

Please give measured pIC50 of the following entry: `CC(C)(C)NCCCc1cc(-c2cccc(C(F)(F)F)c2)nc(C#N)n1`
5.01

Please give measured pIC50 of the following entry: `N#Cc1nc(NC2CCCCC2)nc(N2CCNCC2)n1`
5.77

Please give measured pIC50 of the following entry: `CCC(CC)NCCCc1cc(-c2cccc(C(F)(F)F)c2)nc(C#N)n1`
5.17
